Cited source for all entries: patent US20250019450A1

Biological target: T1, human IL-12Rβ2, Acro (BLI analyte) (human, UniProt Q99665 24-622, limits assumed)
T1 sequence (looked up): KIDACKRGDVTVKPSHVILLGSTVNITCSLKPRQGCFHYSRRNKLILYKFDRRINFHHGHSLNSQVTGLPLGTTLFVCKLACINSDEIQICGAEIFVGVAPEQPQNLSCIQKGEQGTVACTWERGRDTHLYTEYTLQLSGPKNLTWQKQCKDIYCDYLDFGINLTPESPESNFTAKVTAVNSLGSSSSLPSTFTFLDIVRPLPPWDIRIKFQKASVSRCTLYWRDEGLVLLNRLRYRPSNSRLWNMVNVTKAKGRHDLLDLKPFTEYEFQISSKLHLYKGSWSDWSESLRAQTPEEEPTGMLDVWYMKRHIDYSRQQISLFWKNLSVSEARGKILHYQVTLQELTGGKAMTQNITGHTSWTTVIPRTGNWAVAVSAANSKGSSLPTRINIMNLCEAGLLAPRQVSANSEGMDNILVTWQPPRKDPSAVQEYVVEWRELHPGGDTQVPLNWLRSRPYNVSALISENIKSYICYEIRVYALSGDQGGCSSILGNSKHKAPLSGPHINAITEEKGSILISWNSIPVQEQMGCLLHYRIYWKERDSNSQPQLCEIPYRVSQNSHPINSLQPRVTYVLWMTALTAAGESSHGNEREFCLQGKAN
Assay: BLI (Octet), antibody on AHC tip
Each entry below lists one item and its recorded log10 Kd value.
Each number you see is log10 of Kd, and the unit inside the log is nM.

Sample answers from the record:
>  <binder>
DGL572 (bispecific antibody, V domains shown, 233B1 x 93B2) V domain 1: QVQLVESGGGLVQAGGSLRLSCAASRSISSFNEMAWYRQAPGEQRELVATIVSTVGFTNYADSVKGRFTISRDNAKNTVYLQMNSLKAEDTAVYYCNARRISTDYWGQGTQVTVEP V domain 2: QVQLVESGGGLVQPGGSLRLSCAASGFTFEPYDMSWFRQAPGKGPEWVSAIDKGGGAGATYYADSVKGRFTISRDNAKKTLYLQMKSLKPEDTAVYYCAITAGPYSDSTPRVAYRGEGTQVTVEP

>  <log10 Kd>
0.38

$$$$
>  <binder>
DGL514 (bispecific antibody, V domains shown, 97B1 x 67B2) V domain 1: QVQLVESGGGLAQAGGSLRLSCAASGRTFSNDDMAWFRQAPGKEREFVAHIDRNAASTNYADSVKGRFTISRDNAKNTVYLQMTRLKPEDTAVYYCAADPDHFGTTWYQQYTYWGPGTQVTVEP V domain 2: QVQLVESGGGLVQPGGSLRLSCAASGFTFSNYAMSWIRQGPERGFEWVSRINSGGGTTSYADSVKGRFTISRDNAKNTLYLQMNSLKPEDTAVYYCAKHSHPDYSSNYYRPGQGTQVTVEP

>  <log10 Kd>
0.74

$$$$
>  <binder>
DGL570 (bispecific antibody, V domains shown, 233B1 x 64B2) V domain 1: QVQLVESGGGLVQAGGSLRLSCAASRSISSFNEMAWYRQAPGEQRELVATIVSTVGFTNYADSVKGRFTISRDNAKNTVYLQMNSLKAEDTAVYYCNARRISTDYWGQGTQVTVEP V domain 2: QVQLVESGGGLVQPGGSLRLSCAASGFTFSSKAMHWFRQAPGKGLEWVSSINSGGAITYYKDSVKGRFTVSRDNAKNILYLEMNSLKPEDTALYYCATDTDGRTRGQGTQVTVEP

>  <log10 Kd>
0.88

$$$$
>  <binder>
DGL569 (bispecific antibody, V domains shown, 233B1 x 19B2) V domain 1: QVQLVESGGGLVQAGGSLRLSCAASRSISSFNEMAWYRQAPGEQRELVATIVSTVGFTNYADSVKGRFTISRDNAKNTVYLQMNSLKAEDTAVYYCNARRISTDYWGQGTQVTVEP V domain 2: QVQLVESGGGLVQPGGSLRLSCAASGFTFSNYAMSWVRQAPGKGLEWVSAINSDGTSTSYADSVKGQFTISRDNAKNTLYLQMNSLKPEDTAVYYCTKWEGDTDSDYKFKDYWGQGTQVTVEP

>  <log10 Kd>
-0.14

$$$$
>  <binder>
DGL605 (bispecific antibody, V domains shown, 238B1 x 93B2) V domain 1: QLQLVESGGGLVQPGGSLRLSCAASGFTFSSYGMSWVRQAPGKGLEWVSYISAGGGTTTYVDFVKGRFTISRDNAKNMLYLQMNSLKPEDTAVYYCVHAADGSRGQGTQVTVEP V domain 2: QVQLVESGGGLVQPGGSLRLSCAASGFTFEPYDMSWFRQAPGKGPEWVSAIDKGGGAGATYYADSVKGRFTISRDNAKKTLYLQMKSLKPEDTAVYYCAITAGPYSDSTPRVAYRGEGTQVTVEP

>  <log10 Kd>
0.27

$$$$

Look up log10 Kd of DGL586 (bispecific antibody, V domains shown, 258B1 x 19B2) V domain 1: QVQLVESGGGLVQAGGSLRLSCAASGRTFSSYVMGWFRQAPGQEREFVAAIMRNGIMTYYADSVKGRFTISRDNAKNTVYLQMNTLKPDDTAVYYCAAASRVGVSISQSSSYTSWGQGTQVTVEP V domain 2: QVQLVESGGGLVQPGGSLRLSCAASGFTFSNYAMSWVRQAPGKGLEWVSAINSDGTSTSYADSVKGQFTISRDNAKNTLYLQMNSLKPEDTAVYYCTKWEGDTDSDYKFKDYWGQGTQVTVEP and report it. -0.11

Look up log10 Kd of DGL487 (bispecific antibody, V domains shown, 67B1 x 190B2) V domain 1: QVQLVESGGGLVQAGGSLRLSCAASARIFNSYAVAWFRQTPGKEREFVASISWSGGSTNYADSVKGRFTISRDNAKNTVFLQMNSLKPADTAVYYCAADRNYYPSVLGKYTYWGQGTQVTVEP V domain 2: QVQLQESGPGLVKPSQTLSLTCTVSGGSITTNYYYWSWIRQPPGKGLEWMGAIAYSGSTYYSPSLKSRTSISRDTSKNQFTLQLSSVTPEDTAVYYCASGINFYSNYPTLNEYDYWGQGTQVTVEP and report it. 1.21

Look up log10 Kd of DGL534 (bispecific antibody, V domains shown, 115B1 x 19B2) V domain 1: QVQLVESGGGLVQAGGSLRLSCLASGRTSNYFMGWFRQAPGKEREFVAAISRSGGGTWYADSVKGRFAISRDNAKNTVNLQMNSLKREDTAVYYCAADRRTGTSVYTVDEYDYWGQGTQVTVEP V domain 2: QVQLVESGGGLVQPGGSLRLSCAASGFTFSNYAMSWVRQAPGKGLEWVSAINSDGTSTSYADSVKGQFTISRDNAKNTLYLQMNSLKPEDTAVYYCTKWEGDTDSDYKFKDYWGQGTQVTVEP and report it. -0.15

Look up log10 Kd of DGL495 (bispecific antibody, V domains shown) V domain 1: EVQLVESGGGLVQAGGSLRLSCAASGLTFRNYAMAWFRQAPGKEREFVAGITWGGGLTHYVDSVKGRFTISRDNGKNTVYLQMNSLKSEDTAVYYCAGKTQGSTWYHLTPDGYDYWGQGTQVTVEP V domain 2: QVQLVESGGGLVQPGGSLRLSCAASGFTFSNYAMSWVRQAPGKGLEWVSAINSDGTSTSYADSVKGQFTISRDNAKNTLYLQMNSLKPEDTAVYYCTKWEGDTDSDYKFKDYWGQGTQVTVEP and report it. -0.11
